Biological target: ZFP SBS#700 (synthetic)
Sequence (chain, as listed by the source): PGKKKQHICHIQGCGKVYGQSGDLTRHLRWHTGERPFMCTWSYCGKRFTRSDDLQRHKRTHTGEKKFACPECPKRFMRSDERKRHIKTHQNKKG
Experiment: EMSA
Conditions: tags: MBP fusion
measuredEndpoint: pKd
Lab note — pKd values are minus log10 of concentrations in M.

Any idea what its pKd is? The binder is GCGGCGGCAG (dsDNA) DNA 1: GCGGCGGCAG DNA 2: CTGCCGCCGC
7.35
